protocol-summary: Growth inhibition of Escherichia coli TG1 transformed with IncX3 plasmid expressing blaNDM-1 incubated for overnight by CLSI protocol based assay
study-conditions: 12 h
measured-property: MIC (µg/mL)
Report the value in µg/mL with no unit label.

Prompt line: Look up and report measured MIC for this entry: O=C1N[Se]c2ccccc2C(=O)N1
Response line: 64

Prompt line: Look up and report measured MIC for this entry: C[C@@H](O)[C@H]1C(=O)N2C(C(=O)O)=C(S[C@@H]3CN[C@H](C(=O)N(C)C)C3)[C@H](C)[C@H]12
Response line: 64

Prompt line: Look up and report measured MIC for this entry: CCN(CC)CCn1[se]c2ccccc2c1=O
Response line: 64

Prompt line: Look up and report measured MIC for this entry: CCN1CCC[C@@H]1Cn1[se]c2ccccc2c1=O
Response line: 64
